Measured koff, listed per entry.
Biological target: T1, human CTLA-4.ECD-6×His (human, UniProt P16410 36-161)
T1 construct: extracellular domain; also called WBP316.hCTLA-4.ECD-6×His; hCTLA4-His (WT)
T1 sequence: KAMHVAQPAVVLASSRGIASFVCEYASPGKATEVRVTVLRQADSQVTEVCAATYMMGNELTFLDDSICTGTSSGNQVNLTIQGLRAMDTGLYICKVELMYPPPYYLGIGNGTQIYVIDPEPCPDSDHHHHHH
Assay: SPR, antibody captured on anti-human Fc, CTLA-4.ECD-6×His as analyte, 1:1 fit
// return numeric value only (unit: s⁻¹, not printed)

Query string: Suppose we examine the binder W3162_1.154.8-z35-uAb.IgG1K (antibody, V domains shown, Humanized; label says IgG1K) VH: QVQLVQSGAEVKKPGSSVKVSCKASGYTFTNYFMNWVRQAPGQGLEWMGRVDPEQGRADYAEKFKKRVTITADKSTSTAYMELSSLRSEDTAVYYCARRAMDNYGFAYWGQGTLVTVSS VL: EIVLTQSPDFQSVTPKEKVTITCSANSALSYMYWYQQKPDQSPKLWVHGTSNLASGVPSRFSGSGSGTDFTLTINSLEAEDAATYYCHHWSNTQWTFGGGTKVEIK ; what koff value has been reported?
Result string: 0.000119

Query string: Suppose we examine the binder W3162-1.146.19 xAb.IgG1 (antibody, V domains shown, Chimeric: rat variable regions fused with constant region of human antibody (label xAb.IgG1)) VH: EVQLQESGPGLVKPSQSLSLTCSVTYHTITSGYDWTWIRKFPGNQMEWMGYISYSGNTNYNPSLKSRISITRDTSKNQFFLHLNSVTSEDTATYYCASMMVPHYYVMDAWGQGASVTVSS VL: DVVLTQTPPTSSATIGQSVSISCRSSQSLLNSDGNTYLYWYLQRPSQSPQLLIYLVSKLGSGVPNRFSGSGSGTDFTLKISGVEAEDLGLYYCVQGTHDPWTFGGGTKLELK ; what koff value has been reported?
Result string: 0.000148

Query string: Suppose we examine the binder W3162-1.145.10 xAb.IgG1 (antibody, V domains shown, Chimeric: rat variable regions fused with constant region of human antibody (label xAb.IgG1)) VH: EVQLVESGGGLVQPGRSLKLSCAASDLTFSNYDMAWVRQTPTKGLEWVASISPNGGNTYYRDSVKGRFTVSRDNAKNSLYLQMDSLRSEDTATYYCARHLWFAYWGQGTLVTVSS VL: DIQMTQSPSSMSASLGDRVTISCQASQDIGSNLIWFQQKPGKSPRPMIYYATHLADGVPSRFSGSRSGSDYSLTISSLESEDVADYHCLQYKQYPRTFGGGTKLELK ; what koff value has been reported?
Result string: 0.0165
